system: Plasmodium falciparum; assay: Antiplasmodial activity against Plasmodium falciparum Itg2 synchronized ring stage parasites infected in erythrocytes assessed as reduction in parasitemia after 48 hrs by Giemsa staining; format: functional, organism-based; details: Itg2, 48 h
valueType: IC50 (nM)
Report the value in nM with no unit label.

So for CC(C)C[C@H](NC(=O)N1CCOCC1)C(=O)N[C@H](/C=C/S(=O)(=O)c1ccccc1)CCc1ccccc1 , the logged IC50 turned out to be 22

====

Below, each of the compounds is paired with its reported IC50 value.
test system: Plasmodium falciparum; experiment: Antiplasmodial activity against chloroquine and pyrimethamine-resistant Plasmodium falciparum V1/S; type: functional, organism-based
State the answer as a number, implicitly in nM.

Reference set, count: 2
Measured IC50, C[C@@H]1CC[C@H]2[C@@H](C)C(=O)O[C@@H]3O[C@@]4(C)CC[C@@H]1[C@]32OO4 : 4.24

Quick note, IC50 for CC(C)C[C@H](NC(=O)c1ccc(CO[C@H]2O[C@@H]3O[C@@]4(C)CC[C@H]5[C@H](C)CC[C@@H]([C@H]2C)[C@@]35OO4)cc1)C(=O)N[C@H](/C=C/S(C)(=O)=O)CCc1ccccc1 landed at 1.65

Continuing:
Summary for this compound, C[C@H]1[C@@H](OCc2ccc(C(=O)NCC(=O)N[C@H](/C=C/S(=O)(=O)c3ccccc3)Cc3ccccc3)cc2)O[C@@H]2O[C@@]3(C)CC[C@H]4[C@H](C)CC[C@@H]1[C@@]24OO3 : IC50 is 1.59

The compound listed as C[C@H]1[C@@H](OCc2ccc(C(=O)N[C@@H](Cc3ccccc3)C(=O)N[C@H](/C=C/S(C)(=O)=O)CCc3ccccc3)cc2)O[C@@H]2O[C@@]3(C)CC[C@H]4[C@H](C)CC[C@@H]1[C@@]24OO3 has a reported IC50 of 2.25
